Experiment: Pharmacokinetics in the dog, oral and intra-venous, plasma assay by HPLC-MS
Format: in vivo
Conditions: 500 mg/kg oral route, suspension in corn oil, vs intra-venous
attributeMeasured: bioavailability (%)
Could you give me the number in %? Just the number is fine.

query: Dear colleague, I am looking for the recorded bioavailability of the following molecule: CC(C)CCC[C@@H](C)[C@H]1CC[C@H]2[C@@H]3CCC4=CC(=NO)CC[C@]4(C)[C@H]3CC[C@]12C
result: 6
